target: T1, recombinant human VEGF165 (PeproTech EC Ltd.) (human, UniProt P15692-4 27-191); test: SPR BIAcore T100, hVEGF165 amine-coupled on CM4 chip, scFv as analyte
T1 construct: Amine-coupled to a CM4 sensor chip; also called hVEGF165
T1 sequence (P15692 other isoform, or with tags, fused parts or gaps limits assumed): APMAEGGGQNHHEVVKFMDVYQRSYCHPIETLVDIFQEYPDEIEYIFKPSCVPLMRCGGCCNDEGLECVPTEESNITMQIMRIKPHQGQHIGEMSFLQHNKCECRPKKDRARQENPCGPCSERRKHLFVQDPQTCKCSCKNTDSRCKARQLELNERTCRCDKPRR
Rule: koff below 0.003 s⁻¹ gives 1. Equal to or above 0.003 s⁻¹ gives -1.

{"binder": "375-min (scFv) EIVMTQSPSTLSASVGDRVIITCQASENINIWLSWYQQKPGKAPKLLIYQASKLASGVPSRFSGSGSGAEFTLTISSLQPDDFATYYCQNNYSYNRYGAPFGQGTKLTVLGGGGGSGGGGSGGGGSGGGGSEVQLVESGGGLVQPGGSLRLSCAASGFSFTTTDYMCWVRQAPGKGLEWVSCILAGDGSTYYANWAKGRFTISRDNSKNTLYLQMNSLRAEDTAVYYCAKSDPASSWSFALWGQGTLVTVSS", "cat": -1}
{"binder": "610-min (scFv) EIVMTQSPSTLSASVGDRVIITCQASQSISSWLSWYQQKPGKAPKLLIYQASTLASGVPSRFSGSGSGAEFTLTISSLQPDDFATYYCQNNYGFRSYGGAFGQGTKLTVLGGGGGSGGGGSGGGGSGGGGSEVQLVESGGGLVQPGGSLRLSCAASGIDFSGAYYMGWVRQAPGKGLEWVSYIDYDGDRYYASWAKGRFTISRDNSKNTLYLQMNSLRAEDTAVYYCAKSDYSSGWGTDIWGQGTLVTVSS", "cat": 1}
{"binder": "509-max (scFv) EIVMTQSPSTLSASVGDRVIITCQASQNIRIWLSWYQQKPGKAPKLLIYKASTLESGVPSRFSGSGSGTEFTLTISSLQPDDFATYYCQNNAHYSTNGGTFGQGTKLTVLGGGGGSGGGGSGGGGSGGGGSEVQLVESGGGLVQPGGSLRLSCTASGFSLSSYYMCWVRQAPGKGLEWVGCLDYVGDTDYASWAKGRFTISKDASKNTVYLQMNSLRAEDTAVYYCARTDDSRGWGLNIWGQGTLVTVSS", "cat": 1}
{"binder": "610-max (scFv) EIVMTQSPSTLSASVGDRVIITCQASQSISSWLSWYQQKPGKAPKLLIYQASTLASGVPSRFSGSGSGTEFTLTISSLQPDDFATYYCQNNYGFRSYGGAFGQGTKLTVLGGGGGSGGGGSGGGGSGGGGSEVQLVESGGGLVQPGGSLRLSCTASGIDFSGAYYMGWVRQAPGKGLEWVGYIDYDGDRYYASWAKGRFTISKDTSKNTVYLQMNSLRAEDTAVYYCARSDYSSGWGTDIWGQGTLVTVSS", "cat": 1}
{"binder": "578-max (scFv) EIVMTQSPSTLSASVGDRVIITCQASEIIHSWLAWYQQKPGKAPKLLIYLASTLASGVPSRFSGSGSGTQFTLTISSLQPDDFATYYCQNVYLASTNGANFGQGTKLTVLGGGGGSGGGGSGGGGSGGGGSEVQLVESGGGLVQPGGSLRLSCTASGFSLTDYYYMTWVRQAPGKGLEWVGFIDPDDDPYYATWAKGRFTISRDTSKNTVYLQMNSLRAEDTAVYYCAGGDHNSGWGLDIWGQGTLVTVSS", "cat": 1}

Lookup: Say whether its koff is strictly beneath 0.003 s⁻¹. Entry: 534-max (scFv) EIVMTQSPSTLSASVGDRVIITCQASQSINIWLSWYQQKPGKAPKLLIYKESTLASGVPSRFSGSGSGTEFTLTISSLQPDDFATYYCQNNYDSGNNGFPFGQGTKLTVLGGGGGSGGGGSGGGGSGGGGSEVQLVESGGGLVQPGGSLRLSCTASGFSLSYYYMSWVRQAPGKGLEWVGIIGPGDYTDYASWAKGRFTISKDTSKNTVYLQMNSLRAEDTAVYYCARGDDNSGWGEDIWGQGTLVTVSS
Found: -1

Lookup: Say whether its koff is strictly beneath 0.003 s⁻¹. Entry: 511-min (scFv, V domains shown) VH: EVQLVESGGGLVQPGGSLRLSCAASGFSLNTYYMNWVRQAPGKGLEWVSIIAPDDTTYYASWAKSRFTISRDNSKNTLYLQMNSLRAEDTAVYYCAKSGDTTAWGADIWGQGTLVTVSS VL: EIVMTQSPSTLSASVGDRVIITCQASQSINIWCSWYQQKPGKAPKLLIYRASTLASGVPSRFSGSGSGAEFTLTISSLQPDDFATYYCQANYAYSAGYGAAFGQGTKLTVL
Found: 1

Lookup: Say whether its koff is strictly beneath 0.003 s⁻¹. Entry: 567-max (scFv) EIVMTQSPSTLSASVGDRVIITCQADQSIYIWLSWYQQKPGKAPKLLIYKASTLESGVPSRFSGSGSGTQFTLTISSLQPDDFATYYCQNNAHYSTNGGTFGQGTKLTVLGGGGGSGGGGSGGGGSGGGGSEVQLVESGGGLVQPGGSLRLSCSVSGFSLSDYYMCWVRQAPGKGLEWVGCLDYFGSTDDASWAKGRFTISKDTSKNTVYLQMNSLRAEDTAVYYCARTDDSRGWGLNIWGQGTLVTVSS
Found: 1

Lookup: Say whether its koff is strictly beneath 0.003 s⁻¹. Entry: 511-max (scFv) EIVMTQSPSTLSASVGDRVIITCQASQSINIWLSWYQQKPGKAPKLLIYRASTLASGVPSRFSGSGSGTEFTLTISSLQPDDFATYYCQANYAYSAGYGAAFGQGTKLTVLGGGGGSGGGGSGGGGSGGGGSEVQLVESGGGLVQPGGSLRLSCTVSGFSLNTYYMNWVRQAPGKGLEWVGIIAPDDTTYYASWAKSRSTISRDTSKNTVYLQMNSLRAEDTAVYYCARSGDTTAWGADIWGQGTLVTVSS
Found: 1

Every entry's value here was drawn from patent EP3964526A1.
